- Assayed system: PI3Kalpha (Homo sapiens, UniProt P42336)
- Construct: His (N); host or cells: SF9 insect cells (baculovirus)
- Sequence (P42336 whole entry): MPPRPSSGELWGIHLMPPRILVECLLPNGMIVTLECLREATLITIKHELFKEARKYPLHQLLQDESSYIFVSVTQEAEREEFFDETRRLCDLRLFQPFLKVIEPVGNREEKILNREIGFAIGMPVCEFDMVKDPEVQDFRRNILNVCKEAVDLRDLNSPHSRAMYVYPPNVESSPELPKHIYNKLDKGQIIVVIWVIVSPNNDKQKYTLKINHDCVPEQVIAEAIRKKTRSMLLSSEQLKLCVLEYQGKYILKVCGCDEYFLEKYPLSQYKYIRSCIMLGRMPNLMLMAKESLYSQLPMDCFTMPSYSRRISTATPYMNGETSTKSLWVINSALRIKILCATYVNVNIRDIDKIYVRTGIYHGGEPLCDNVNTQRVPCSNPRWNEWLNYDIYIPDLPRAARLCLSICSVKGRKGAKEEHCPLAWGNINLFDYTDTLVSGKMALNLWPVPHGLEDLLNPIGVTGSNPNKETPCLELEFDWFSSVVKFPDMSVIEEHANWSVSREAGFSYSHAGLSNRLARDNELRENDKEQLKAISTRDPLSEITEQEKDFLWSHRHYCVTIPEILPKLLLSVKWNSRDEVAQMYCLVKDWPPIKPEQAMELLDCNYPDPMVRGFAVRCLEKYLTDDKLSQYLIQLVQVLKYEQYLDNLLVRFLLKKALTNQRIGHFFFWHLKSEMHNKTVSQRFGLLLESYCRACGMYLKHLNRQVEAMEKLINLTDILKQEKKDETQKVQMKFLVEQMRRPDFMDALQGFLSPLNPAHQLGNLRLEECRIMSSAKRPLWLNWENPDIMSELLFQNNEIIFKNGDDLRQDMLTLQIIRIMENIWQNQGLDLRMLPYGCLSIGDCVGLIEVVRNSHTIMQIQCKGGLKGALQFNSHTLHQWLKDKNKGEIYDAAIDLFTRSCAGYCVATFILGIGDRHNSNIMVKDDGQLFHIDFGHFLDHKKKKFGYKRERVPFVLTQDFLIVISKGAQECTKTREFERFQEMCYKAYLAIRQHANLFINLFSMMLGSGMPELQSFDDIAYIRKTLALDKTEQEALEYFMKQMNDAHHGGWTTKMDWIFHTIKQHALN
- Sequence (P27986 whole entry partner): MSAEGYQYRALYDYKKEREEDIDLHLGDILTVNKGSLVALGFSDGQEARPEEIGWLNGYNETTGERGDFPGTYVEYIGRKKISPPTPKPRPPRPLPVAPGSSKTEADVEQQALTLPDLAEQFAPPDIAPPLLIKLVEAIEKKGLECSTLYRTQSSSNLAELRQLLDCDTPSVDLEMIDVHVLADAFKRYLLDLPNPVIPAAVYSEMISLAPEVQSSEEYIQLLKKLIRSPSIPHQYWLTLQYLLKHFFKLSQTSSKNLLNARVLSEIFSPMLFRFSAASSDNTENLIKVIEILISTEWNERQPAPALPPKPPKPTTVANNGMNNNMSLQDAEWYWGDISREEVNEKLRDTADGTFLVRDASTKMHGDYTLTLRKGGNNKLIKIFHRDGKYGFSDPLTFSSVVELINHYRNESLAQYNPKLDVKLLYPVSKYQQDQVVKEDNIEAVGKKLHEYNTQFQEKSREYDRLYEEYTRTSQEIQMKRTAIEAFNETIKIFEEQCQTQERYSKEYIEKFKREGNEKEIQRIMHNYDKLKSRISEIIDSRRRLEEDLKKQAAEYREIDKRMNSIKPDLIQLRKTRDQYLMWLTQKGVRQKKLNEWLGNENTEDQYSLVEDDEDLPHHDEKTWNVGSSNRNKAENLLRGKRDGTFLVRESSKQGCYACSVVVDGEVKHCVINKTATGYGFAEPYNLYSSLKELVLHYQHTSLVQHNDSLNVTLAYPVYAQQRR
- Test details: Human PI3Kα enzyme assay (HTRF)
- Type: biochemical
- Assay conditions: at 1.11 μM
Note to self: use MET only for PI3Kalpha % inh readings below 20%; a reading exactly at 20% still gets NOT MET.

>  <Compound>
N#Cc1c(N2CCOCC2)sc2c1C(c1ccc(Cl)c(Cl)c1)CCNC2=O (centres unmarked) [Compound 116]

>  <Label>
NOT MET

$$$$
>  <Compound>
O=C1NCC(c2ccc(Cl)cc2)c2cc(N3CCOCC3)sc21 (centres unmarked) [Compound 128]

>  <Label>
MET

$$$$
>  <Compound>
O=C1NCCC(c2ccc(Cl)cc2)c2cc(N3CCOCC3)sc21 (centres unmarked) [Compound 148]

>  <Label>
NOT MET

$$$$
>  <Compound>
O=C1NCC(c2ccc(Cl)cc2)c2cc(-c3ccncc3)sc21 (centres unmarked) [Compound 156]

>  <Label>
MET

$$$$
>  <Compound>
O=C1CCC(c2ccc(Cl)cc2)c2cc(-c3ccncc3)sc21 (single isomer, unassigned) [Compound 4]

>  <Label>
MET

$$$$
>  <Compound>
O=C1N[C@@H](C(=O)NCCO)[C@H](c2ccc(Cl)cc2)c2cc(N3CCOCC3)sc21 [Compound 204]

>  <Label>
NOT MET

$$$$
>  <Compound>
O=C1CCC(O)C(c2ccc(Cl)cc2)c2cc(-c3ccncc3)sc21 (centres unmarked) [Compound 210]

>  <Label>
MET

$$$$
>  <Compound>
CCNC(=O)[C@@H]1NC(=O)c2sc(N3CCOCC3)cc2[C@H]1c1ccc(Cl)cc1 [Compound 197]

>  <Label>
MET

$$$$

###

- Assayed system: PI3Kbeta (Homo sapiens)
- Construct: His (N); host or cells: SF9 insect cells (baculovirus)
- Sequence (P42338 whole entry): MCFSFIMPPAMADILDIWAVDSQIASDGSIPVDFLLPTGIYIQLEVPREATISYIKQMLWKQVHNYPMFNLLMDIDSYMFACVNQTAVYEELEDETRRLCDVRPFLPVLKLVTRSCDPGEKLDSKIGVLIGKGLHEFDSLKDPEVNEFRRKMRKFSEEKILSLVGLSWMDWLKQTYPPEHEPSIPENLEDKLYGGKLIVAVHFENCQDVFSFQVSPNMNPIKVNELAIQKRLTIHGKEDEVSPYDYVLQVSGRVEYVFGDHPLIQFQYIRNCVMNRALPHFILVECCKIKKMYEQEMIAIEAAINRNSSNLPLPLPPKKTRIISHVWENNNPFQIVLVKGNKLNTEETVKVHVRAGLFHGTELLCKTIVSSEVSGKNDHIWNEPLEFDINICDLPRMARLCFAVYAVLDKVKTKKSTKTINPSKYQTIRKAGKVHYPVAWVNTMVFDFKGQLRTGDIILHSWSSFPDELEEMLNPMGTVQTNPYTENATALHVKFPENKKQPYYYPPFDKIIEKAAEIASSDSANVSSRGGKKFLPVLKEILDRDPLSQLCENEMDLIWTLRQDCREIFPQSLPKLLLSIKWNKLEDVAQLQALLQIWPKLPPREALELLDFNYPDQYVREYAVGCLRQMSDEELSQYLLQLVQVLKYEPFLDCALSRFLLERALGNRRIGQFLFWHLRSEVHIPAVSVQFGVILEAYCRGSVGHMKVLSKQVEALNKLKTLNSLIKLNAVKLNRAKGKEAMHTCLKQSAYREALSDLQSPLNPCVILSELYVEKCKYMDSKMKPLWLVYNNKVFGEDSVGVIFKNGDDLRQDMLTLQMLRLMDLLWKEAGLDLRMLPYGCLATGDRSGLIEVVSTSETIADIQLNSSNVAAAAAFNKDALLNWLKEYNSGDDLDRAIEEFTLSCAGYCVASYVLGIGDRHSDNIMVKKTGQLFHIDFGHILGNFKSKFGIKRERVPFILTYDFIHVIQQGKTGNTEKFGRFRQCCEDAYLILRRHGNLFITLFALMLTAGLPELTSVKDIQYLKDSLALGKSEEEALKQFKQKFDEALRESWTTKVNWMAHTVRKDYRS
- Sequence (P27986 whole entry partner): as the sequence (P27986 whole entry partner) above
- Test details: Human PI3K beta enzyme assay (HTRF, as for PI3K alpha)
- Format: biochemical
- Assay conditions: at 1.11 μM; read-out: PI3Kbeta % inh
Could you label it label 1 if measured inhibition at 1.11 µM is 90% or higher, and label 0 otherwise?

>  <Compound>
Cc1nn2ccccc2c1-c1nc2c(s1)NC(=O)CCC2c1ccc(Cl)cc1 (centres unmarked)

>  <Label>
label 0

$$$$
>  <Compound>
O=C1NCC(c2ccc(Cl)cc2)c2c1sc(N1CCOCC1)c2C#Cc1ccccc1 (single isomer, unassigned)

>  <Label>
label 0

$$$$
>  <Compound>
O=C1CC(c2ccc3ccccc3c2)c2cc(N3CCOCC3)sc21 (centres unmarked)

>  <Label>
label 1

$$$$
>  <Compound>
CN1CC(c2ccc(Cl)cc2)c2cc(N3CCOCC3)sc2C1=O (centres unmarked)

>  <Label>
label 0

$$$$
>  <Compound>
Clc1ccc(C2CCc3cn[nH]c3-c3sc(-c4ccncc4)cc32)cc1 (centres unmarked)

>  <Label>
label 1

$$$$
>  <Compound>
O=C1NCC=C(c2ccc3ccncc3c2)c2nc(N3CCOCC3)sc21

>  <Label>
label 0

$$$$
>  <Compound>
CC1(C)CC(=O)c2sc(-c3ccncc3)cc2C1(O)c1ccc(Cl)cc1 (centres unmarked)

>  <Label>
label 0

$$$$
>  <Compound>
O=C1NCC(c2ccc(Cl)cc2)c2c1sc(N1CCOCC1)c2C#Cc1cccnc1 (centres unmarked)

>  <Label>
label 1

$$$$
